target: B1R receptor of the rat (CHO K1 cells stably transfected with the B1R gene of the rat) (Rattus norvegicus); construct: expressed in transfected cells; host or cells: CHO K1 cells (Chinese hamster ovary), stably transfected; assay: Functional study on the bradykinin receptor 1 (B1R), Ca2+ fluorescence (Fluo-4) FLIPR/Novostar assay, rB1R cells; assay type: cell-based; details: CHO-K1, 10 μM, read-out: % Inhibition (r-B1R) at 10 μM
Sequence (P97583 whole entry): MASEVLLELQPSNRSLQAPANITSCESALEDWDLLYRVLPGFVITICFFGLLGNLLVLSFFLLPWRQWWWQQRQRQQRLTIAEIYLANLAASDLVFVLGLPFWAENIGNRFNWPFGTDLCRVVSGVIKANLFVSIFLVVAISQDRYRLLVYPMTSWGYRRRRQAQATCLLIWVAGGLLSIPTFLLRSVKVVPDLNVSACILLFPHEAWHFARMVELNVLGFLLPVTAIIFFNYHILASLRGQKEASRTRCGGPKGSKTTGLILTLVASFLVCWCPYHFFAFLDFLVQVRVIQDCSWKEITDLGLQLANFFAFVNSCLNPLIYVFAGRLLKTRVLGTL
Task for the reader: assign each of the following molecules its reported inhibition at 10 µM.
Respond numerically; units are % and should not be typed.

The recorded inhibition at 10 µM for Cc1cc(N2CCC(N(C)C(=O)c3ccc4c(c3)C(NC(=O)Nc3ccc(F)c(Cl)c3)CC4)CC2)cc(C)n1 (stereo not shown) [CC_H-314] is 81

Notebook: CN(C(=O)c1ccc2c(c1)C(NC(=O)C1CC1)CC2(C)C)C1CCN(c2ccncc2)CC1 (stereo not shown) [CC_H-226] , inhibition at 10 µM read as 99

Entry under test: Cc1cc(N2CCC(N(C)C(=O)c3ccc4c(c3)C(N(C)C(=O)Nc3cc(C(F)(F)F)ccc3Cl)CC4)CC2)cc(C)n1 (stereo not shown) [CC_H-343] . Its inhibition at 10 µM was 67

Entry O=C(NCCC1CCN(c2ccncc2)CC1)c1ccc2c(c1)C(NC(=O)c1cc(F)ccc1Cl)CC2 (stereo not shown) [CC_H-36] — recorded inhibition at 10 µM = 104

Reported inhibition at 10 µM for CN(C(=O)NC1CC(C)(C)c2ccc(C(=O)N(C)C3CCN(c4ccncc4)CC3)cc21)c1ccccc1Cl (stereo not shown) [CC_H-15] was 101

Per the records, this molecule ( CN(C(=O)c1ccc2c(c1)C(NC(=O)Nc1cccc(Cl)c1)CCC2)C1CCN(c2ccncc2)CC1 (stereo not shown) [CC_H-256] ) has inhibition at 10 µM equal to 96

For reference, reported inhibition at 10 µM for CN(C(=O)c1ccc2c(c1)C(NC(=O)CC(C)(C)C)CCC2)C1CCN(c2ccncc2)CC1 (stereo not shown) [CC_H-251] stands at 111

Lab note: CN(C(=O)c1ccc2c(c1)C(N(C)C(=O)C1CCCCC1)CC2)C1CCN(c2ccncc2)CC1 (stereo not shown) [CC_H-211] gave inhibition at 10 µM of 108

Data point: Cc1ccc(F)c(C(=O)NC2CCOc3ccc(C(=O)N(C)C4CCN(c5ccncc5)CC4)cc32)c1Cl (stereo not shown) [CC_H-273] ; inhibition at 10 µM = 112

So for COCC(=O)NC1CCCc2ccc(C(=O)N(C)C3CCN(c4ccncc4)CC3)cc21 (stereo not shown) [CC_H-252] , the logged inhibition at 10 µM turned out to be 107

Measured inhibition at 10 µM of Cc1cc(N2CCC(N(C)C(=O)c3ccc4c(c3)C(N(C)C(=O)N(C)c3ccccc3Cl)CC4)CC2)cc(C)n1 (stereo not shown) [CC_H-349] : 80

# inhibition at 10 µM (molecule: CN(C(=O)c1ccc2c(c1)C(NC(=O)CCC1CCCC1)CC2)C1CCN(c2ccncc2)CC1 (stereo not shown) [CC_H-59] ) is 103

CN(C(=O)c1ccc2c(c1)C(NC(=O)c1cncnc1)CC2(C)C)C1CCN(c2ccncc2)CC1 (stereo not shown) [CC_H-22] has a reported inhibition at 10 µM of 90

Value of measured inhibition at 10 µM for the entry CC(=O)N(C)C1CCc2ccc(C(=O)N(C)C3CCN(c4ccncc4)CC3)cc21 (stereo not shown) [CC_H-215] : 65

Reported inhibition at 10 µM for CN(C(=O)c1ccc2c(c1)C(NC(=O)c1sccc1Cl)CCO2)C1CCN(c2ccncc2)CC1 (stereo not shown) [CC_H-40] was 100

Measured inhibition at 10 µM, CN(C(=O)c1ccc2c(c1)C(NS(=O)(=O)Cc1ccccc1F)CC2)C1CCN(c2ccc3cnccc3c2)CC1 (stereo not shown) [CC_H-384] : 109

All figures here come from patent US8680159B2.
